// data source = PubChem BioAssay AID256

Give measured T/C for each item. Keep answers brief.
System: CD2F1 mice, L1210 leukemia ip, survival T/C
Assay: NCI In Vivo Anticancer Drug Screen. Data for tumor model L1210 Leukemia (intraperitoneal) in CD2F1 (CDF1) mice
Settings: endpoint: mean survival time; dose: 400.0 mg/kg/injection; schedule: Q04DX003 (ip); vehicle: saline with Tween-80; higher = longer survival
Procedure: The antitumor activity of compounds was measured in mice bearing transplantable tumors. Survival or tumor size were measured and the results are expressed as the measurement made in the treated group (T) divided by the measurement made in the vehicle treated control group (C). The tumor model used in this assay is L1210 Leukemia (intraperitoneal) in CD2F1 (CDF1) mice
Toxic doses and inconclusive results are not listed.

Study these solved cases before continuing.
- COMPOUND: "CCCCCC(CN(C)C)C(/C=C/c1ccccc1)OC(=O)c1ccc([N+](=O)[O-])cc1 (stereo not given)"
  SYSTEM_TESTED: "CD2F1 mice, L1210 leukemia ip, survival T/C"
  T/C: "106 % of control"
- COMPOUND: "Nc1ccc(I)cc1F"
  SYSTEM_TESTED: "CD2F1 mice, L1210 leukemia ip, survival T/C"
  T/C: "100 % of control"
- COMPOUND: "CC(=O)OC(CNCC(=O)O)C(Cl)(Cl)Cl (stereo not given)"
  SYSTEM_TESTED: "CD2F1 mice, L1210 leukemia ip, survival T/C"
  T/C: "98 % of control"

// input: 2 compounds below; output: T/C for each
1. Cc1nc(SCc2ccc(Cl)cc2)[nH]c(=O)c1CCO
2. c1ccc(C(=NCCN=C(c2ccccc2)c2ccccc2)c2ccccc2)cc1

A)
1. 94 % of control
2. 97 % of control
